- target of assay: Hepatocyte growth factor receptor (Homo sapiens, UniProt P08581)
- Sequence (P08581 whole entry): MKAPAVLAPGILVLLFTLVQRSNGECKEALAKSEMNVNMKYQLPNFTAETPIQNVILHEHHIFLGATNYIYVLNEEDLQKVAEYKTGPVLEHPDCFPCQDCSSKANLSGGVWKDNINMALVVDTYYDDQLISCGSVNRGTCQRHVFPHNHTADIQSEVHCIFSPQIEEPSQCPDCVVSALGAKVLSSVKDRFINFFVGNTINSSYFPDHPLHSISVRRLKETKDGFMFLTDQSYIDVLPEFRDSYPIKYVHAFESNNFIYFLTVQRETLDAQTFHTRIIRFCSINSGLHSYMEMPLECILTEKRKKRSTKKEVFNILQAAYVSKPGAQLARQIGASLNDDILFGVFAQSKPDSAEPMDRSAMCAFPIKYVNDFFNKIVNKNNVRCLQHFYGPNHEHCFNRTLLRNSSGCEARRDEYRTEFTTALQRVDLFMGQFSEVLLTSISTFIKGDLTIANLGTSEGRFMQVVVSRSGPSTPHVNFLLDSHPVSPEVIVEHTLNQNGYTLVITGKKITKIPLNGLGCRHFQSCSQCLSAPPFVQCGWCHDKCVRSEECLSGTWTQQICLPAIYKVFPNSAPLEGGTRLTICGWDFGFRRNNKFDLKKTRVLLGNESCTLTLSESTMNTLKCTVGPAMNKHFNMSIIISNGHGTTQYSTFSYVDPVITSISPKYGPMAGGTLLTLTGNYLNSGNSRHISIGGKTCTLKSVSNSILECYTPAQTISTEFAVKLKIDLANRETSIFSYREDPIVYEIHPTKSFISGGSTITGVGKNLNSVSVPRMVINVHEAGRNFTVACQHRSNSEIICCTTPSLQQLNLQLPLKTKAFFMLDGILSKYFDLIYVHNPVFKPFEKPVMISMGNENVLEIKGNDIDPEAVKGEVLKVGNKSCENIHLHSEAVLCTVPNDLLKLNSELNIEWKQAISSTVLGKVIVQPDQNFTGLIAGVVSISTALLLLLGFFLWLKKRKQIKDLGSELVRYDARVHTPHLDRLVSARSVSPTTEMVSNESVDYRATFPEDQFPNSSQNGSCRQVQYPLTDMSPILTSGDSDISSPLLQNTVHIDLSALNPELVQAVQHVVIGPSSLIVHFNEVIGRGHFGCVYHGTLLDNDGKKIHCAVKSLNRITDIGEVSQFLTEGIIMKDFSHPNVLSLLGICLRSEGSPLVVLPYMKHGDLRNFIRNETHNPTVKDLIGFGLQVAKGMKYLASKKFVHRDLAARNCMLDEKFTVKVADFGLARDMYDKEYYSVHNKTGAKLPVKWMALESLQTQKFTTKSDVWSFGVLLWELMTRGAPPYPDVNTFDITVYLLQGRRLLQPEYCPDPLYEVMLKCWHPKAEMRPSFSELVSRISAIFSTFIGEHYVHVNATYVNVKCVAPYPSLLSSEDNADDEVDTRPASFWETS
- assay explanation: Inhibition of human recombinant His-tagged cMET expressed in baculovirus expression system reduction in phosphorylation using tyrosine 6 peptide as substrate after 60 mins FRET based Z'-LYTE assay
pIC50: −log10 of the molar value.
The entries below are paired with their reported pIC50.
measured property: pIC50

[
  {
    "given smiles": "Cc1ccc(CSc2nc3[nH]c(C)cc(=O)n3n2)cc1",
    "measured property": "pIC50",
    "reported value": 7.10
  },
  {
    "given smiles": "Cc1cc(O)n2nc(SCc3cccc(Cl)c3)nc2n1",
    "measured property": "pIC50",
    "reported value": 7.04
  },
  {
    "given smiles": "Cc1cc(=O)n2nc(SCc3cccc([N+](=O)[O-])c3)nc2[nH]1",
    "measured property": "pIC50",
    "reported value": 7.05
  },
  {
    "given smiles": "Cc1cc(=O)n2nc(SCc3ccc(C(C)(C)C)cc3)nc2[nH]1",
    "measured property": "pIC50",
    "reported value": 7.19
  },
  {
    "given smiles": "Cc1cc(=O)n2nc(SCc3cccc(C(F)(F)F)c3)nc2[nH]1",
    "measured property": "pIC50",
    "reported value": 7.03
  },
  {
    "given smiles": "Cc1cc(=O)n2nc(SCc3ccc([N+](=O)[O-])cc3)nc2[nH]1",
    "measured property": "pIC50",
    "reported value": 6.98
  },
  {
    "given smiles": "Cc1cc(=O)n2nc(SCc3ccc(Cl)cc3)nc2[nH]1",
    "measured property": "pIC50",
    "reported value": 6.95
  },
  {
    "given smiles": "Cc1cc(=O)n2nc(SCc3ccc(F)cc3)nc2[nH]1",
    "measured property": "pIC50",
    "reported value": 6.69
  },
  {
    "given smiles": "Cc1cc(=O)n2nc(SCc3ccc(C(C)C)cc3)nc2[nH]1",
    "measured property": "pIC50",
    "reported value": 7.30
  },
  {
    "given smiles": "Cc1cc(=O)n2nc(SCc3ccc(Cl)cc3Cl)nc2[nH]1",
    "measured property": "pIC50",
    "reported value": 7.38
  }
]

====

- target of assay: Epidermal growth factor receptor (Homo sapiens, UniProt P00533, L858R)
- Sequence (P00533 25-1210 L858R limits assumed): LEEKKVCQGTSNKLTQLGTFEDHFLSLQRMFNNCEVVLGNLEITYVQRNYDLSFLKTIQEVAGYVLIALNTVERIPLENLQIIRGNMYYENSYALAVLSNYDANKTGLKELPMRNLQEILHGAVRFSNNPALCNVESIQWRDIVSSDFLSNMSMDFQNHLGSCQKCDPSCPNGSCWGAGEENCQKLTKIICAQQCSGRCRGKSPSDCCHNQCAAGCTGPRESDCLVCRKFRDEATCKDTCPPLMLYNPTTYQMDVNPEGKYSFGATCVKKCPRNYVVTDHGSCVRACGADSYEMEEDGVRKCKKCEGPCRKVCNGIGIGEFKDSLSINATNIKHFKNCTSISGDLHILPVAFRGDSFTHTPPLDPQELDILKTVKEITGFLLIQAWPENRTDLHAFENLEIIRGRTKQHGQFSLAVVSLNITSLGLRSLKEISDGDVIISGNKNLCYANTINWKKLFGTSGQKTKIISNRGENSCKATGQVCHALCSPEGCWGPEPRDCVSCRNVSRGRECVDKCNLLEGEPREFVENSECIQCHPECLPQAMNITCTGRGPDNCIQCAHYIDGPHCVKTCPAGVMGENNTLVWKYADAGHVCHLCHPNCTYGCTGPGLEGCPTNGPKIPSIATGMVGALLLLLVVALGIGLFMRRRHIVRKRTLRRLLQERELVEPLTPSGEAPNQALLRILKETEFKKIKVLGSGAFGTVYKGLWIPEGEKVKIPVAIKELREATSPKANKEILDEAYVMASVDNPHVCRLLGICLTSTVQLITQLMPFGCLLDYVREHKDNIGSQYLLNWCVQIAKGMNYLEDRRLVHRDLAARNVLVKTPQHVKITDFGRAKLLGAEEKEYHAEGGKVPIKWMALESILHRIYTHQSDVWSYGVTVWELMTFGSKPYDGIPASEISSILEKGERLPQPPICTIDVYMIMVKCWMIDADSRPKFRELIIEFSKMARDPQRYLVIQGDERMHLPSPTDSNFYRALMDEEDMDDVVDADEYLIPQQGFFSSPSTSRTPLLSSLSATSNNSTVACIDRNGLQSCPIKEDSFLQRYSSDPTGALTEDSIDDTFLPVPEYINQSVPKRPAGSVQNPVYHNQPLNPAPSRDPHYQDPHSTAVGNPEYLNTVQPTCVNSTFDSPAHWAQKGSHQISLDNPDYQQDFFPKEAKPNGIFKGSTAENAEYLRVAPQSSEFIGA
- assay explanation: Inhibition of human recombinant GST-tagged EGFR L858R mutant expressed in baculovirus expression system reduction in phosphorylation using tyrosine 4 peptide as substrate after 60 mins FRET based Z'-LYTE assay
pIC50: −log10 of the molar value.
The entries below are paired with their reported pIC50.

[
  {
    "given smiles": "Cc1cc(=O)n2nc(SCc3ccc(Cl)cc3Cl)nc2[nH]1",
    "pIC50": 6.85
  },
  {
    "given smiles": "Cc1cc(O)n2nc(SCc3cccc(Cl)c3)nc2n1",
    "pIC50": 6.88
  },
  {
    "given smiles": "Cc1cc(=O)n2nc(SCc3cccc(C(F)(F)F)c3)nc2[nH]1",
    "pIC50": 7.09
  },
  {
    "given smiles": "Cc1cc(=O)n2nc(SCc3ccc([N+](=O)[O-])cc3)nc2[nH]1",
    "pIC50": 6.97
  },
  {
    "given smiles": "Cc1cc(=O)n2nc(SCc3ccc(C(C)C)cc3)nc2[nH]1",
    "pIC50": 7.10
  },
  {
    "given smiles": "Cc1cc(=O)n2nc(SCc3ccc(Cl)cc3)nc2[nH]1",
    "pIC50": 7.27
  },
  {
    "given smiles": "Cc1cc(=O)n2nc(SCc3cccc([N+](=O)[O-])c3)nc2[nH]1",
    "pIC50": 6.80
  },
  {
    "given smiles": "Cc1cc(=O)n2nc(SCc3ccc(F)cc3)nc2[nH]1",
    "pIC50": 7.28
  },
  {
    "given smiles": "Cc1ccc(CSc2nc3[nH]c(C)cc(=O)n3n2)cc1",
    "pIC50": 6.51
  }
]
